meta.source: patent US20080207573A1

We begin with a simple list: items and their reported IC50.
- Test system: HIV-1IIIB
- assayInfo: PBMC Drug Susceptibility Assay (HIV-1 p24 in supernatant)
- Type: cell-based
- experimentalParameters: Human immunodeficiency virus 1, PBMC, 168 h; Table 7; HIV-1IIIB-infected human PBMCs, seven days

molecule	result
C=C(C)[C@@H]1CC[C@]2(C(=O)NCc3ccc(F)cc3C(=O)O)CC[C@]3(C)C(CCC4[C@@]5(C)CCC(OC(=O)CC(C)(C)C(=O)O)C(C)(C)C5CC[C@]43C)C12 (stereo partly shown)	3.6 nM
C=C(C)[C@@H]1CC[C@]2(C(=O)NCc3ccc4cccc(O)c4n3)CC[C@]3(C)C(CCC4[C@@]5(C)CCC(OC(=O)CC(C)(C)C(=O)O)C(C)(C)C5CC[C@]43C)C12 (stereo partly shown)	3.5 nM
C=C(C)[C@@H]1CC[C@]2(C(=O)N[C@@H](C)c3cccc[n+]3[O-])CC[C@]3(C)C(CCC4[C@@]5(C)CCC(OC(=O)CC(C)(C)C(=O)O)C(C)(C)C5CC[C@]43C)C12 (stereo partly shown)	44 nM

In the following, a different molecule is considered.
Request the reported IC50 associated with C=C(C)[C@@H]1CC[C@]2(C(=O)NCc3cccnc3C(=O)O)CC[C@]3(C)C(CCC4[C@@]5(C)CCC(OC(=O)CC(C)(C)C(=O)O)C(C)(C)C5CC[C@]43C)C12 (stereo partly shown)
44 nM

###

- assayInfo: Human Liver Microsome Assay (metabolic stability)
- Type: in vitro ADME
- experimentalParameters: pH 7.4; human liver microsomes 0.5 mg/mL, test article 1 μM; read-out: Metabolic Stability in Human liver Microsomes T1/2
property: half-life at 1 μM (min)
Respond with the bare value in min.

For orientation, consider the following solved cases.
compound	valueUnit	half-life at 1 μM
C=C(C)[C@@H]1CC[C@]2(C(=O)N[C@H](C)c3ccccn3)CC[C@]3(C)C(CCC4[C@@]5(C)CCC(OC(=O)CC(C)(C)C(=O)O)C(C)(C)C5CC[C@]43C)C12 (single isomer, unassigned) [Compound 105a]	min	36
C=C(C)[C@@H]1CC[C@]2(C(=O)NC(C)(C)c3ccccn3)CC[C@]3(C)C(CCC4[C@@]5(C)CCC(OC(=O)CC(C)(C)C(=O)O)C(C)(C)C5CC[C@]43C)C12 (some centres unmarked) [Compound 126]	min	38
C=C(C)[C@@H]1CC[C@]2(C(=O)N[C@@H](C)c3ccccn3)CC[C@]3(C)C(CCC4[C@@]5(C)CCC(OC(=O)CC(C)(C)C(=O)O)C(C)(C)C5CC[C@]43C)C12 (single isomer, unassigned) [Compound 105b]	min	27

In the following, a different compound is considered.
Request the reported half-life at 1 μM associated with C=C(C)[C@@H]1CC[C@]2(C(=O)NC3(c4ccccn4)CC3)CC[C@]3(C)[C@H](CC[C@@H]4[C@@]5(C)CC[C@H](OC(=O)CC(C)(C)C(=O)O)C(C)(C)[C@@H]5CC[C@]43C)[C@@H]12 [Compound 121]
30

###

- assayInfo: Human Liver Microsome Assay (metabolic stability)
- Assay type: in vitro ADME
- experimentalParameters: human liver microsomes 0.5 mg/mL, test article 1 μM, 40 minutes
Output fulfilled for records whose Metabolic Stability in Human liver Microsomes % compound remaining at 40 minutes is lower than 40%, not fulfilled for records at or above 40%.

compound	cat
C=C(C)[C@@H]1CC[C@]2(C(=O)NCc3ccccn3)CC[C@]3(C)[C@H](CC[C@@H]4[C@@]5(C)CC[C@H](OC(=O)CC(C)(C)C(=O)O)C(C)(C)[C@@H]5CC[C@]43C)[C@@H]12	fulfilled
C=C(C)[C@@H]1CC[C@]2(C(=O)N[C@H](C)c3ccccn3)CC[C@]3(C)C(CCC4[C@@]5(C)CCC(OC(=O)CC(C)(C)C(=O)O)C(C)(C)C5CC[C@]43C)C12 (single isomer, unassigned) [Compound 105a]	not fulfilled
C=C(C)[C@@H]1CC[C@]2(C(=O)NC3(c4ccccn4)CC3)CC[C@]3(C)[C@H](CC[C@@H]4[C@@]5(C)CC[C@H](OC(=O)CC(C)(C)C(=O)O)C(C)(C)[C@@H]5CC[C@]43C)[C@@H]12	not fulfilled
C=C(C)[C@@H]1CC[C@]2(C(=O)N[C@@H](C)c3ccccn3)CC[C@]3(C)C(CCC4[C@@]5(C)CCC(OC(=O)CC(C)(C)C(=O)O)C(C)(C)C5CC[C@]43C)C12 (single isomer, unassigned) [Compound 105b]	fulfilled

Shift focus to the following entry.
# check: Metabolic Stability in Human liver Microsomes % compound remaining at 40 minutes < 40% for C=C(C)[C@@H]1CC[C@]2(C(=O)NC(C)(C)c3ccccn3)CC[C@]3(C)C(CCC4[C@@]5(C)CCC(OC(=O)CC(C)(C)C(=O)O)C(C)(C)C5CC[C@]43C)C12 (some centres unmarked)
not fulfilled

###

- assayInfo: Compound toxicity in mock-infected MT-4 cells (WST-1 assay)
- Assay type: cell-based
- experimentalParameters: human, read-out: TC50 (concentration of compound that results in death of 50% of the host cells)
We begin with a simple list: items and their reported CC50 at 4 days.

Request the reported CC50 at 4 days associated with C=C(C)[C@@H]1CC[C@]2(C(=O)NCc3ccccc3C(=O)O)CC[C@]3(C)[C@H](CC[C@@H]4[C@@]5(C)CC[C@H](OC(=O)CC(C)(C)C(=O)O)C(C)(C)[C@@H]5CC[C@]43C)[C@@H]12
~6.3 µM

Request the reported CC50 at 4 days associated with C=C(C)[C@@H]1CC[C@]2(C(=O)NCc3ccncc3)CC[C@]3(C)[C@H](CC[C@@H]4[C@@]5(C)CC[C@H](O)C(C)(C)[C@@H]5CC[C@]43C)[C@@H]12
> 10 µM

###

We begin with a simple list: items and their reported EC50.
- Test system: HIV-1 laboratory strain, NL4-3
- assayInfo: MT-4 Cytoprotection Assay (protection from HIV-induced cytopathic effect, WST-1 readout)
- Format: cell-based
- experimentalParameters: Human immunodeficiency virus 1, NL43, MT4; Table 7; MT-4 cells, HIV-1 NL4-3; read-out: MT4 EC50
Respond with the bare value in nM.

For orientation, consider the following solved cases.
compound	studySystem	valueUnit	EC50
C=C(C)[C@@H]1CC[C@]2(C(=O)NCc3ccc4cccc(O)c4n3)CC[C@]3(C)C(CCC4[C@@]5(C)CCC(OC(=O)CC(C)(C)C(=O)O)C(C)(C)C5CC[C@]43C)C12 (stereo partly drawn)	HIV-1 laboratory strain, NL4-3	nM	3
C=C(C)[C@@H]1CC[C@]2(C(=O)N[C@@H](C)c3cccc[n+]3[O-])CC[C@]3(C)C(CCC4[C@@]5(C)CCC(OC(=O)CC(C)(C)C(=O)O)C(C)(C)C5CC[C@]43C)C12 (stereo partly drawn)	HIV-1 laboratory strain, NL4-3	nM	36
C=C(C)[C@@H]1CC[C@]2(C(=O)NCc3ccc(C(=O)O)s3)CC[C@]3(C)C(CCC4[C@@]5(C)CCC(OC(=O)CC(C)(C)C(=O)O)C(C)(C)C5CC[C@]43C)C12 (stereo partly drawn)	HIV-1 laboratory strain, NL4-3	nM	371

Request the reported EC50 associated with C=C(C)[C@@H]1CC[C@]2(C(=O)NCc3ccc(F)cc3C(=O)O)CC[C@]3(C)C(CCC4[C@@]5(C)CCC(OC(=O)CC(C)(C)C(=O)O)C(C)(C)C5CC[C@]43C)C12 (stereo partly drawn)
28

Request the reported EC50 associated with C=C(C)[C@@H]1CC[C@]2(C(=O)NCc3cccnc3C(=O)O)CC[C@]3(C)C(CCC4[C@@]5(C)CCC(OC(=O)CC(C)(C)C(=O)O)C(C)(C)C5CC[C@]43C)C12 (stereo partly drawn)
24

Request the reported EC50 associated with C=C(C)[C@@H]1CC[C@]2(C(=O)Nc3cccc4cccnc34)CC[C@]3(C)C(CCC4[C@@]5(C)CCC(OC(=O)CC(C)(C)C(=O)O)C(C)(C)C5CC[C@]43C)C12 (stereo partly drawn)
3100

###

- assayInfo: Compound toxicity in mock-infected MT-4 cells (WST-1 assay)
- Format: cell-based
- experimentalParameters: human, read-out: TC50 (concentration of compound that results in death of 50% of the host cells)
property: CC50 at 4 days

For orientation, consider the following solved cases.
molecule	property	result
C=C(C)[C@@H]1CC[C@]2(C(=O)NCCc3ccc(OC)cc3)CC[C@]3(C)[C@H](CC[C@@H]4[C@@]5(C)CC[C@H](OC(=O)CC(C)(C)C(=O)O)C(C)(C)[C@@H]5CC[C@]43C)[C@@H]12 [Compound 70]	CC50 at 4 days	> 10 µM
C=C(C)[C@@H]1CC[C@]2(C(=O)NCc3ccc(C(=O)O)cc3)CC[C@]3(C)[C@H](CC[C@@H]4[C@@]5(C)CC[C@H](OC(=O)CC(C)(C)C(=O)O)C(C)(C)[C@@H]5CC[C@]43C)[C@@H]12 [Compound 71]	CC50 at 4 days	~7.7 µM

In the following, a different molecule is considered.
Request the reported CC50 at 4 days associated with C=C(C)[C@@H]1CC[C@]2(C(=O)NCc3cccnc3)CC[C@]3(C)[C@H](CC[C@@H]4[C@@]5(C)CC[C@H](OC(=O)CC(C)(C)C(=O)O)C(C)(C)[C@@H]5CC[C@]43C)[C@@H]12 [Compound 76]
> 10 µM
